B1: tRNA (parent)
chain: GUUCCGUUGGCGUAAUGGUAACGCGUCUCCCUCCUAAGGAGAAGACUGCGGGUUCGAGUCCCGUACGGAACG

variants of: B1; experiment: yeast fitness relative to wild type (ratio to wild type); higher = fitter; tRNA-Arg(CCU), competitive growth, 37 C, YPD
This sample holds only a part of the variants without activity.
# yeast fitness annotations
Just the number, please, no unit after it.

- C29U C33G: 0.689

Kindly consider the entry below.
Which value of yeast fitness has been reported for C29U C30U A65G in the records?
0.704
